Each recorded value in this set is attributed to patent US20250340595A1.

Target: T1, Recombinant cynomolgus TfR1, His6-tagged (a.a. 89-760) (cynomolgus, UniProt H9EXL1 89-760 (rhesus entry))
T1 construct: range 89-760; same product number named for FP and SPR; also called Cyno TfR1; Acro Biosystems TFR-C524a
T1 sequence (chain, as listed by the source): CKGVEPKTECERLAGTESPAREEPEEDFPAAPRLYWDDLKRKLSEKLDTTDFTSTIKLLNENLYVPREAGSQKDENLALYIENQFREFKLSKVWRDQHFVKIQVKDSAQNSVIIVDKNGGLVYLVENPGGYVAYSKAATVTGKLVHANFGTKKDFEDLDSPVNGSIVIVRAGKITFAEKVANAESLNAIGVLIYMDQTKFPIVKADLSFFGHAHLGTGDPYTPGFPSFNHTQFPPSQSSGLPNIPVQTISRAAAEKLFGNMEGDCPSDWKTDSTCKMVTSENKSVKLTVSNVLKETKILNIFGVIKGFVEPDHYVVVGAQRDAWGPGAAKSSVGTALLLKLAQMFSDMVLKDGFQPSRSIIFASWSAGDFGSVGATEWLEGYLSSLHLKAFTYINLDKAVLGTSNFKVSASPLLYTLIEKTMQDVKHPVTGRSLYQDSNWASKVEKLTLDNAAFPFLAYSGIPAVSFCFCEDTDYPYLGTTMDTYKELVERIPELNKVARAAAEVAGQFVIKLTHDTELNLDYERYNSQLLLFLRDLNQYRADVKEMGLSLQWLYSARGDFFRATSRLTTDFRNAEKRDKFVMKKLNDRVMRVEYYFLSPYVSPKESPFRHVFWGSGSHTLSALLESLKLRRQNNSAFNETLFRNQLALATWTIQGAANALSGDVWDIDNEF
Test: SPR, TfR1 on chip
pKd: −log10 of the molar value. Starred links: 1 amine or outer side, 2 acyl side, 3 side chain; linkers in the order of their positions; H or OH if unused. Positions of bridges follow the written chain, without caps; N, C: chain ends. Non-standard residues stand in square brackets, D forms with d. No end group written: not given here. TATB = O=C(C[*:1])N1CN(C(=O)C[*:2])CN(C(=O)C[*:3])C1; Tle = CC(C)(C)[C@H](N)C(=O)O; Aib = CC(C)(N)C(=O)O

binder	pKd
Ac-N[dW]NCSPDAHLGCISYC (linker 4-12-16 via TATB (inferred)) [BCY18035]	4.99
Ac-CSPDAHLGCISYCE[dP]W (linker 1-9-13 via TATB (inferred)) [BCY18038]	5.78
ACPPDAYLGC[Tle]SYCA (linker 2-10-14 via TATB) [BCY16964]	6.29
Ac-CSADAHLGCISYC (linker 1-9-13 via TATB (inferred)) [BCY17987]	5.29
ACPPDAHLGCISYCA (3 Cys on TATB) [BCY16048]	5.89
ACS[Aib]DAHLGC[Tle]SYCA (linker 2-10-14 via TATB) [BCY16753]	5.77
